Source: paper PMC10250618

# study-system: h-P2Y4 (Homo sapiens)
# Construct: host or cells: human 1321N1 astrocytoma cells, stably transfected
# Sequence (P51582 whole entry): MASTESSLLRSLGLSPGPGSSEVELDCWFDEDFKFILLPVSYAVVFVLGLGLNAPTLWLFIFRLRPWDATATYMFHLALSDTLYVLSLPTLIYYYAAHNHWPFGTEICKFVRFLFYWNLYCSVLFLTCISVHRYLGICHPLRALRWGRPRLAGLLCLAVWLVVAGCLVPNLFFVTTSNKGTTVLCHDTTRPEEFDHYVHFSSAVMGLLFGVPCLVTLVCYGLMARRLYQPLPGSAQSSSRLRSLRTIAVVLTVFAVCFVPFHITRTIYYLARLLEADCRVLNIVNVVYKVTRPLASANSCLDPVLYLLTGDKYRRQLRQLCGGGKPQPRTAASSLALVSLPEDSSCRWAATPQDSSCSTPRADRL
# method: Calcium mobilization assay, h-P2Y4 transfected 1321N1 astrocytoma cells
# Type: cell-based
# condition-notes: 1321-N1; final conc of 100 μM; 500 μM UTP; read-out: % Inhibition h-P2Y4
reported-property: inhibition at 100 µM (%)
Kindly answer with a numeric value in %, unit omitted.

# example entries with known answers
COc1nc2ccccc2n1C(=O)NS(=O)(=O)c1ccc(Cl)cc1 :: 23
O=C(NS(=O)(=O)c1ccc(Cl)cc1)n1c(-c2ccccc2)nc2ccccc21 :: 19
Nc1nc2cc(Cl)ccc2n1C(=O)NS(=O)(=O)c1ccc(Cl)cc1 :: 34

Recorded result, `Cc1ccc(S(=O)(=O)NC(=O)n2c(N)nc3ccccc32)cc1` , inhibition at 100 µM: 41

Recorded result, `O=C(NS(=O)(=O)c1ccccc1)n1c(Cl)nc2ccccc21` , inhibition at 100 µM: 13

Recorded result, `COc1ccc(S(=O)(=O)NC(=O)n2c(Cl)nc3ccccc32)cc1` , inhibition at 100 µM: 20

Recorded result, `Cc1ccc(S(=O)(=O)NC(=O)n2c(N)nc3cc(Cl)ccc32)cc1` , inhibition at 100 µM: 29

###

pIC50 listing for selected molecules.
# study-system: r-P2Y6 (Rattus norvegicus)
# Construct: host or cells: human 1321N1 astrocytoma cells, stably transfected
# Sequence (Q63371 whole entry): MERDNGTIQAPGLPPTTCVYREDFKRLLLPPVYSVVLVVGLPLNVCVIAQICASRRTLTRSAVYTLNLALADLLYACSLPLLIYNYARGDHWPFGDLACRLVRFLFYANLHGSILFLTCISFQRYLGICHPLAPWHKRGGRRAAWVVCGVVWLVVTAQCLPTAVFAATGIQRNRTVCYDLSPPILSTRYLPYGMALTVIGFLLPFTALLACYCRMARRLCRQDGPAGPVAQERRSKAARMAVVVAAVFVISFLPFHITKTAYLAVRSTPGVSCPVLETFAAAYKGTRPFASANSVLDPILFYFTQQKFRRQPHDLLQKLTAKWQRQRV
# method: Calcium mobilization assay, r-P2Y6 transfected 1321N1 astrocytoma cells
# Type: cell-based
# condition-notes: Ca2+ mobilization inhibition, transfected 1321N1 cells, 100 μM of UDP; read-out: IC50 ± SEM r-P2Y6
Interpret pIC50 as the negative base-10 log of the concentration measured in mol/L.

# example entries with known answers
O=C(NS(=O)(=O)c1ccc([N+](=O)[O-])cc1)n1c(Cl)nc2ccccc21 :: 4.91
Nc1c(S(=O)(=O)O)cc(Nc2ccc(Nc3nc(Cl)nc(Nc4cccc(S(=O)(=O)O)c4)n3)c(S(=O)(=O)O)c2)c2c1C(=O)c1ccccc1C2=O [Reactive Blue 2, reference compound] :: 5.55
Nc1nc2cc(Cl)ccc2n1C(=O)NS(=O)(=O)c1ccc([N+](=O)[O-])cc1 :: 5.07
COc1ccc(S(=O)(=O)NC(=O)n2c(Cl)nc3ccccc32)cc1 :: 4.79
O=C(NS(=O)(=O)c1ccc(Cl)cc1)n1c(-c2ccccc2)nc2ccccc21 :: 5.15

# next molecule below
Recorded result, `O=C(NS(=O)(=O)c1ccc(Cl)cc1)n1c(Cl)nc2ccccc21` , pIC50: 4.90

###

cytotoxicity at 24 h, 50 µM listing for selected compounds.
# method: MTT assay, non-transfected 1321N1 astrocytoma cells
# Assay type: cell-based, human
# condition-notes: human, non-transfected 1321N1 astrocytoma cells; at 50 µM; non-transfected astrocytoma 1321N1 cells; triplicate; read-out: H-1321N1 Cell Line (%cytotoxicity ±SEM)
Kindly answer with a numeric value in %, unit omitted.

# example entries with known answers
O=C(NS(=O)(=O)c1ccccc1)n1c(Cl)nc2ccccc21 :: 33.6
Nc1nc2ccccc2n1C(=O)NS(=O)(=O)c1ccc(Cl)cc1 :: 23.6

Recorded result, `COc1ccc(S(=O)(=O)NC(=O)n2c(OC)nc3ccccc32)cc1` , cytotoxicity at 24 h, 50 µM: 25.5

Recorded result, `Nc1nc2cc(Cl)ccc2n1C(=O)NS(=O)(=O)c1ccc(Cl)cc1` , cytotoxicity at 24 h, 50 µM: 38.7

Recorded result, Cc1ccc(C(=O)Nc2ccc(S(=O)(=O)O)c3cc(S(=O)(=O)O)cc(S(=O)(=O)O)c23)cc1NC(=O)c1cccc(NC(=O)Nc2cccc(C(=O)Nc3cc(C(=O)Nc4ccc(S(=O)(=O)O)c5cc(S(=O)(=O)O)cc(S(=O)(=O)O)c45)ccc3C)c2)c1 [Suramin, reference compound] , cytotoxicity at 24 h, 50 µM: 12.3

Recorded result, `Cc1ccc(S(=O)(=O)NC(=O)n2c(N)nc3cc(Cl)ccc32)cc1` , cytotoxicity at 24 h, 50 µM: 12.6

Recorded result, `Nc1nc2cc(Cl)ccc2n1C(=O)NS(=O)(=O)c1cc(Cl)cc(Cl)c1O` , cytotoxicity at 24 h, 50 µM: 32.8

Recorded result, `O=C(NS(=O)(=O)c1ccc(Cl)cc1)n1c(-c2ccccc2)nc2ccccc21` , cytotoxicity at 24 h, 50 µM: 26.5
